Where these numbers come from: patent US7939540B2

Tested on: CYP1A1
assay setup: human, hepatocytes, 3 μM
parameter: Induction Ability compared to positive control (%) CYP1A1

// below: answered compounds
Induction Ability compared to positive control (%) CYP1A1 value, target or system CYP1A1, for CNC(=O)c1ccc(C(=O)Nc2cccc(-c3nc(NC)nc4cc(OC)c(OC)cc34)c2)cc1 : 0.0

Let me check: CNc1nc(-c2cccc(NC(=O)c3ccc(C(=O)OC(C)C)cc3)c2)c2cc(OC)c(OC)cc2n1 , system CYP1A1, measured Induction Ability compared to positive control (%) CYP1A1 is 1.8

I: CCOC(=O)c1ccc(C(=O)Nc2cccc(-c3nc(NC)nc4cc(OC)c(OC)cc34)c2)cc1
II: CNc1nc(-c2cccc(NC(=O)c3ccc(C(=O)OCCOC)cc3)c2)c2cc(OC)c(OC)cc2n1
Higher Induction Ability compared to positive control (%) CYP1A1 between I and II ? Respond using the label that marks the chosen record.
I
(I: 0.4%, II: 0.1%)
